experiment: Determination of the half-life of polypeptides in rats (plasma LC-MS/MS); type: in vivo; conditions: rat; male SD rats, intravenous 4 mg/kg, plasma
No end group written: not given here.
RECORDED ENDPOINT: half-life

QUERY: Supply measured half-life of GRKKRRQRRRCDMAEHTERLKANDSLKLSQEYESI-NH2 [PW-6, reference compound] in your reply.
RESULT: 2.2 min

Entry source: patent EP4793292A1
